Ref: patent US9920053B2

# systemUnderTest: human dopamine transporter (DAT) (Homo sapiens (Human), UniProt Q01959)
# Sequence (Q01959 whole entry): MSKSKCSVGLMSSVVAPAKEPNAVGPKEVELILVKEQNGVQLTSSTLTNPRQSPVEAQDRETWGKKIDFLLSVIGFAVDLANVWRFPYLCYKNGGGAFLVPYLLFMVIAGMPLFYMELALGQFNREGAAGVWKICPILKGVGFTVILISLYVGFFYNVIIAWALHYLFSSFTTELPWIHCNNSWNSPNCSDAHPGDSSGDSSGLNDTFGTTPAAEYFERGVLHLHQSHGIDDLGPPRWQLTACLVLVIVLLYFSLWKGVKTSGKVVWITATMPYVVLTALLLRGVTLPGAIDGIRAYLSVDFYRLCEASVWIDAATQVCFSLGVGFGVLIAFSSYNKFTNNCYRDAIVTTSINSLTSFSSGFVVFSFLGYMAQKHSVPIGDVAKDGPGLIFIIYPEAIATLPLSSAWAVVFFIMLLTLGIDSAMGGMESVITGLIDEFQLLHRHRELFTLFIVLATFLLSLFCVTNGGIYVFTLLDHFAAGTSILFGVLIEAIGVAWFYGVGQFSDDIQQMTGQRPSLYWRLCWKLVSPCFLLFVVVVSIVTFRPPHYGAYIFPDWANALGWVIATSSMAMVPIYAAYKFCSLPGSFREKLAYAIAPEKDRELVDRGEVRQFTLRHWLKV
# protocolText: Scintillation Proximity Assay (SPA) for human DAT binding ([3H]WIN-35,428)
# details: recombinant human DAT, CHO
experimentalReadout: pIC50 DAT
Answer field: number only, no words.

Recorded results for 2 molecules are shown here.
NCC1(O)CCN(c2cccc(Oc3cccc(F)c3)c2F)CC1 [Example 17] | 8.17
NCC1(O)CCN(c2cccc(Oc3ccccc3)c2F)CC1 [Example 16] | 7.81

Moving on to the next molecule.
Please fill in: pIC50 DAT reported for Cl.OC1(CN2CCCNCC2)CCN(c2nc(Oc3cccc(F)c3)cc(C(F)(F)F)n2)CC1 [Example 7] = 8.06
